Where do these numbers come from? They come from patent US9511073B2.

Tested on: Staphylococcus aureus (Isolate ID ATCC 29213)
Experiment: Bacterial assay: MIC by broth microdilution or agar dilution (CLSI), S. aureus ATCC 29213
Assay type: cell-based
Conditions: Staphylococcus aureus, ATCC29213, read-out: S. aureus MIC (μg/mL) Activity Range, S. aureus (ATCC29213)
Below is a list of entries, each paired with its recorded MIC value.

Known MIC results, listed for orientation:
compound | MIC
NCC(Oc1ccc(F)c(C(N)=O)c1F)c1nc(-c2ccc(C(F)(F)F)cc2)c(Br)o1 (stereo not drawn) | 1 to 16 µg/mL
CSc1ccc(OC(CO)c2nc(-c3ccc(C(F)(F)F)cc3)c(SC)o2)c(F)c1C(N)=O (stereo not drawn) | > 16 µg/mL
Cc1nc(C)c(-c2nc(C(CO)Oc3ccc(F)c(C(N)=O)c3F)oc2Br)s1 (stereo not drawn) | > 16 µg/mL
C=CCc1oc(C(C)Oc2ccc(F)c(C(N)=O)c2F)nc1-c1ccc(OC)cc1 (stereo not drawn) | 0.25 to 1 µg/mL
COc1ccc(-c2nc(C(CO)Oc3ccc(F)c(C(N)=O)c3F)oc2Br)cn1 (stereo not drawn) | 1 to 16 µg/mL
CCOC(=O)COCC(Oc1ccc(F)c(C(N)=O)c1F)c1nc(-c2ccc(C(F)(F)F)cc2)c(Br)o1 (stereo not drawn) | 0.25 to 1 µg/mL
CC(=O)OCC(Oc1ccc(F)c(C(N)=O)c1F)c1nc(-c2ccc(-c3noc(C)n3)cc2)c(Br)o1 (stereo not drawn) | 1 to 16 µg/mL
NC(=O)c1c(F)ccc(OC(CO)c2nc(-c3cccc(O)c3)c(Br)o2)c1F (stereo not drawn) | > 16 µg/mL
NC(=O)c1c(F)ccc(OC(COCC(=O)O)c2nc(-c3ccc(C(F)(F)F)cc3)c(Br)o2)c1F (stereo not drawn) | > 16 µg/mL
CNCCNC(=O)OCC(Oc1ccc(F)c(C(N)=O)c1F)c1nc(-c2ccc(C(F)(F)F)cc2)c(Br)o1 (stereo not drawn) | 1 to 16 µg/mL

Please supply the value of reported MIC for the item NC(=O)c1c(F)ccc(OC(CO)c2scc(-c3ccc(Cl)cc3)[n+]2[O-])c1F (stereo not drawn) > 16 µg/mL

Query MIC for CCCc1oc(C(C)Oc2ccc(F)c(C(N)=O)c2F)nc1-c1ccccc1 (stereo not drawn) 1 to 16 µg/mL

Return MIC (reported value) for this compound: C=CCc1oc(C(CCC)Oc2ccc(F)c(C(N)=O)c2F)nc1-c1ccc(Cl)cc1 (stereo not drawn) 1 to 16 µg/mL

In one line, give reported MIC of the entry NC(=O)c1c(F)ccc(OC(CO)c2nc(-c3ccc(Cl)cc3F)c(Br)o2)c1F (stereo not drawn) . < 0.25 µg/mL

Provide MIC value for the following compound: CNC(=O)C(Oc1ccc(F)c(C(N)=O)c1F)c1nc(-c2ccc(Cl)cc2)cs1 (stereo not drawn) < 0.25 µg/mL

Report MIC for CCCc1oc(C(COC(C)=O)Oc2ccc(F)c(C(N)=O)c2F)nc1-c1ccc(C(F)(F)F)cc1 (stereo not drawn) 1 to 16 µg/mL

Supply reported MIC belonging to this compound: COCCOCC(=O)NCC(Oc1ccc(F)c(C(N)=O)c1F)c1nc(-c2ccc(C(F)(F)F)cc2)c(Br)o1 (stereo not drawn) 1 to 16 µg/mL

Please report the measured MIC for CCOC(=O)C(Oc1ccc(F)c(C(N)=O)c1F)c1csc(-c2ccc(C(F)(F)F)cc2)n1 (stereo not drawn) 0.25 to 1 µg/mL

Quick one: give measured MIC for COc1ccc(-c2csc(C(CO)Oc3ccc(F)c(C(N)=O)c3F)n2)nc1 (stereo not drawn) 1 to 16 µg/mL

Give the reported MIC for this compound. CC(=O)OCC(Oc1ccc(F)c(C(N)=O)c1F)c1nc(-c2ccc(Cl)cc2)c(Br)o1 (stereo not drawn) 0.25 to 1 µg/mL

Identify measured MIC associated with NC(=O)c1c(F)ccc(OC(COC(=O)NCc2cc[n+]([O-])cc2)c2nc(-c3ccc(C(F)(F)F)cc3)c(Br)o2)c1F (stereo not drawn) 1 to 16 µg/mL
